System: UACC-62 melanoma
Protocol summary: NCI tumour cell line growth inhibition, 48 h
Returns true if the recorded TGI is greater than or equal to 30 µM, and false otherwise.

INSERT INTO assay_data (compound, target_of_assay, class_label) VALUES
  ('C=C1C(=O)C=C[C@]2(C)CC[C@H]3C(=C)C(=O)O[C@@H]3[C@@H]12', 'UACC-62 melanoma', 'false');

Lookup: Decide: TGI of Nc1ccc(S(=O)(=O)Nc2nccs2)cc1 >= 30 µM?
Found: true

Lookup: State whether the measured TGI reaches 30 µM, counting equality as reaching it, for CC(=O)[C@@]1(O)CC[C@H]2[C@@H]3C[C@H](C)C4=CC(=O)C=C[C@]4(C)[C@@]3(F)[C@@H](O)C[C@@]21C
Found: true

Lookup: Would you say COc1cc(/C=C/c2cc(/C=C/c3ccc(O)c(OC)c3)n(C(=O)Nc3ccc(C)cc3C)n2)ccc1O shows TGI at minimum 30 µM?
Found: false

Lookup: Reported TGI at or above 30 µM? Cc1ncc(CCCN(C)C)cc1Nc1ncc2c(n1)-c1ccc(C(F)(F)F)cc1NC(=S)C2
Found: false

Lookup: hey, is TGI for this one >= 30 µM? CCOC(=O)NC(Nc1ccc([N+](=O)[O-])cc1)(C(F)(F)F)C(F)(F)F
Found: true

---

Tested on: BT-549 breast
Protocol summary: NCI tumour cell line growth inhibition, 48 h; in the data active = GI50 below about 0.43 µM; inactive = the rest
Bench note: report the call from YES (active), NO (inactive)

INSERT INTO assay_data (compound, class_label) VALUES
  ('CC(CO)(CO)NCCCCn1ccc2c1C(=O)c1c(c(O)c3ccccc3c1O)C2=O', 'NO'),
  ('CCOc1cc(C(C)(C)C)ccc1C1=N[C@@](C)(c2ccc(Cl)cc2)[C@@](C)(c2ccc(Cl)cc2)N1C(=O)N1CCN(CCCS(C)(=O)=O)CC1', 'NO'),
  ('CC(=O)C(=CN1CCN(C(=O)c2ccco2)C1=S)C(C)=O', 'NO');

Lookup: Could you please tell me the result logged for Cc1ccc(-c2nc3ccc(Cl)cc3c(=O)n2N2C(=O)CSC2c2ccccc2Cl)cc1 (stereo not drawn) in this assay?
Found: NO

Lookup: Please indicate how the test categorized COc1cccc2c(=O)c3c(sc12)c(N1CCNCC1)nc1ccccc13 .
Found: NO

Lookup: Hi team, can someone confirm the assay call for Cc1ccc2[nH]c(O)c(N=Nc3ccc(S(N)(=O)=O)cc3)c2c1 ?
Found: NO

Lookup: For O=c1cc(NC2CCN(CCCc3ccccc3)CC2)c2cc(Cl)ccc2o1 , what call appears in the results of this test?
Found: NO

Lookup: Lab log entry: CN(C)C(=O)[C@H](O)[C@H](Cc1ccccc1)NC(=O)c1cc2cc(Cl)ccc2[nH]1 — outcome as called in the assay?
Found: NO

Lookup: I would be grateful if you could indicate the recorded call for CC(C)C[C@H](NC(=O)/C=C/Cn1ccc2ccccc2c1=O)B(O)O .
Found: NO

Lookup: GET /call?item= Nc1ccc(-c2nc3ccc(Cc4ccc5nc(-c6ccc(N)cc6)[nH]c5c4)cc3[nH]2)cc1 returns the recorded outcome of this test.
Found: NO

Lookup: What was the test verdict on C[C@H](O)C(=O)N1CCC(CCn2c(Sc3cc4c(cc3Br)OCO4)nc3c(N)ncnc32)CC1 ?
Found: NO

---

Test system: EKVX NSCLC
Protocol summary: NCI tumour cell line growth inhibition, 48 h
Catalogue of TGI values

// below: answered compounds
INSERT INTO results (compound, target_of_assay, endpoint_name, experimental_result) VALUES
  ('CC(=O)NC1c2ccccc2C(C)(C)C12CCC1(CC2)OCCO1 (stereo unspecified)', 'EKVX NSCLC', 'TGI', '> 100 µM'),
  ('O=C1CC2c3ccccc3CCC2c2ccccc21 (stereo unspecified)', 'EKVX NSCLC', 'TGI', '15.3 µM'),
  ('CCOC(=O)NC(=O)c1cn(CCCOC(=O)CCCCCCCCCCC(=O)OCCCn2cc(C(=O)NC(=O)OCC)c(=O)[nH]c2=O)c(=O)[nH]c1=O', 'EKVX NSCLC', 'TGI', '> 100 µM'),
  ('C/C(N=NC(=S)N(C)C)=C1\C=CC=CN1O', 'EKVX NSCLC', 'TGI', '> 100 µM'),
  ('CCCSc1nc(COC(=O)NC)c(COC(=O)NC)n1C', 'EKVX NSCLC', 'TGI', '> 100 µM');

Lookup: Given the compound Cc1c(C(=O)/C=C/c2ccccc2)[n+](=O)c2ccccc2n1[O-] , what is its reported TGI?
Found: 29.5 µM

Lookup: So what does the record say about TGI for O=[N+]([O-])/C(C(Cl)=C(Cl)Cl)=C(\N1CCCCC1)n1cncn1 ?
Found: 31.6 µM

Lookup: Could you share which TGI value was measured for Cc1cc(S(=O)(=O)Nc2nc3cc(-c4ccc(Cl)cc4)sc3c(=O)n2N)c(S)cc1Cl ?
Found: > 100 µM

Lookup: Consider the compound shown here: CCNC(=O)Nc1cccc(NC(=O)NCC)n1 What is its recorded TGI?
Found: > 100 µM

Lookup: Would you mind telling me what TGI value was observed for C=CCOc1ccc(C2C(C(=O)OCC)C(=O)CC(C)(O)C2C(=O)OCC)cc1OC (stereo unspecified) ?
Found: > 100 µM

Lookup: Look up TGI for this compound: CCC(=O)ONC(=O)Cn1ccc([N+](=O)[O-])n1
Found: > 100 µM

Lookup: Please give the measured TGI for this compound: CSC(C1c2ccccc2N(c2ccc(C)cc2)c2[nH]c(=O)n(C)c(=O)c21)S(=O)(=O)c1ccc(C)cc1 (stereo unspecified)
Found: > 100 µM

Lookup: Look up TGI: COc1cc(/C=C/c2ccc(OC)c(OC)c2)cc(OC)c1
Found: > 100 µM

Lookup: Look up TGI: CC1=C(CO)C(=O)O[C@@H]([C@@H](CO)[C@H]2CCC3C4C[C@@H](O)[C@@]5(O)CC=CC(=O)[C@]5(C)C4CC[C@@]32C)C1 (stereo partly specified)
Found: > 100 µM

Lookup: Entry Nc1ccc(S2(c3ccc(N)cc3)C=C(c3ccccc3)C(c3ccccc3)=C2)cc1 : reported TGI = ?
Found: > 100 µM

Lookup: Value lookup for TGI; key = O=C1c2cccnc2-c2nccc3c2c1nc1cc(Br)ccc13
Found: 2.52 µM

Lookup: // query TGI value for entry OCc1ccc(C2CC(c3ccco3)=NN2c2ccccc2)o1 (stereo unspecified)
Found: > 100 µM
